Each recorded value in this set is attributed to ChEMBL document CHEMBL5247599.

Tested System: Amine oxidase [flavin-containing] A (Homo sapiens, UniProt P21397)
Sequence (P21397 whole entry): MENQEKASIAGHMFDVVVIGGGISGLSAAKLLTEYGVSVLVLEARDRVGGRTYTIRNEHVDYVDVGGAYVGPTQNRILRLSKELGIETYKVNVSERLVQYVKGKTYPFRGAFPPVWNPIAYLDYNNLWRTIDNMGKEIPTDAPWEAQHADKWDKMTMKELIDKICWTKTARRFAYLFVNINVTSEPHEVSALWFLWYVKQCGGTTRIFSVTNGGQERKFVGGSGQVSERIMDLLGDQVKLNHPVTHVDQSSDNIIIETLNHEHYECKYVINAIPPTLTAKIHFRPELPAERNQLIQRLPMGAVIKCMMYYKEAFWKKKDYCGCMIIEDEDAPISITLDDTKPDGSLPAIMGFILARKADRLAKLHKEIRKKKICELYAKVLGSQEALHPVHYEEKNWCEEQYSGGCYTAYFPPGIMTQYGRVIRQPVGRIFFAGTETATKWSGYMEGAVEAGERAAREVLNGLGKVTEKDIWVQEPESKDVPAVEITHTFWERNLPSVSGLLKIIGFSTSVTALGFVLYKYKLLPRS
Experiment Description: Inhibition of human recombinant MAO-A assessed as inhibition of 4-hydroxyquinoline formation using kynuramine as substrate by fluorescence spectrophotometry analysis
Lab note: anything with IC50 below 7 µM is marked criterion met; values at 7 µM or higher are marked criterion not met.

stdin: Consider Cc1ccc([Se]CC(C)N)cc1 (stereo not drawn) . Does its IC50 lie strictly below 7 µM?
stdout: criterion met

stdin: Consider CC(N)CSc1ccccc1 (stereo not drawn) . Does its IC50 lie strictly below 7 µM?
stdout: criterion met

stdin: Consider CC(N)CSc1cccc(Br)c1 (stereo not drawn) . Does its IC50 lie strictly below 7 µM?
stdout: criterion not met

stdin: Consider Cc1cccc(C)c1[Se]CC(C)N (stereo not drawn) . Does its IC50 lie strictly below 7 µM?
stdout: criterion met

stdin: Consider CC(N)C[Se]c1ccc(F)cc1 (stereo not drawn) . Does its IC50 lie strictly below 7 µM?
stdout: criterion not met

stdin: Consider COc1ccc([Te]CC(C)N)cc1 (stereo not drawn) . Does its IC50 lie strictly below 7 µM?
stdout: criterion not met

stdin: Consider CC(N)CSc1ccc(Br)cc1 (stereo not drawn) . Does its IC50 lie strictly below 7 µM?
stdout: criterion met

---

Tested System: Carbonic anhydrase 6 (Homo sapiens)
Experiment Description: Binding affinity to human CA6 by phenol red dye based stopped flow CO2 hydration assay
Reported Conditions: filed as activator
Lab note: anything with Ka below 70 µM is marked label 1; values at 70 µM or higher are marked label 0.

stdin: Consider Cc1ccc([Te]CC(C)N)cc1 (configuration not stated) . Does its Ka lie strictly below 70 µM?
stdout: label 1

stdin: Consider CC(N)C[Se]c1ccc(N(C)C)cc1 (configuration not stated) . Does its Ka lie strictly below 70 µM?
stdout: label 0

stdin: Consider CC(N)CSc1cccc(Br)c1 (configuration not stated) . Does its Ka lie strictly below 70 µM?
stdout: label 1

stdin: Consider Cc1ccc([Se]CC(C)N)cc1 (configuration not stated) . Does its Ka lie strictly below 70 µM?
stdout: label 1

stdin: Consider CC(N)CSc1ccccc1Br (configuration not stated) . Does its Ka lie strictly below 70 µM?
stdout: label 1

---

Tested System: Carbonic anhydrase 4 (Homo sapiens) (UniProt P22748)
Sequence (P22748 whole entry): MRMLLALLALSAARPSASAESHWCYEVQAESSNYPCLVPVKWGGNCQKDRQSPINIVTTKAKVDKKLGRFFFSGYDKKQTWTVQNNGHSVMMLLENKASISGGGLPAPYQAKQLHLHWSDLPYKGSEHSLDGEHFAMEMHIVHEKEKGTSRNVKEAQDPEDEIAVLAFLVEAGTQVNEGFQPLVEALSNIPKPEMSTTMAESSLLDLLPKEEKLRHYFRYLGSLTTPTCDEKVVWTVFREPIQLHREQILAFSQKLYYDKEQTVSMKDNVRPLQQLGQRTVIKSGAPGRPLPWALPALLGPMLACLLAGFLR
Experiment Description: Binding affinity to human CA4 by phenol red dye based stopped flow CO2 hydration assay
Reported Conditions: filed as activator
I'd be grateful if you could share measured log10 Ka for these entries.
Plainly stated, the numbers are log10 of Ka given in µM.

The value of log10 Ka measured for the compound CC(N)CSc1cccc(Br)c1 (stereo unspecified) turned out to be 0.34

The value of log10 Ka measured for the compound CC(N)CSc1ccccc1 (stereo unspecified) turned out to be 0.85

The value of log10 Ka measured for the compound CC(N)C[Se]c1ccc(N(C)C)cc1 (stereo unspecified) turned out to be 0.97

The value of log10 Ka measured for the compound Cc1ccc([Se]CC(C)N)cc1 (stereo unspecified) turned out to be 0.34

The value of log10 Ka measured for the compound Cc1cccc(C)c1[Se]CC(C)N (stereo unspecified) turned out to be 0.98

The value of log10 Ka measured for the compound Cc1ccccc1[Se]CC(C)N (stereo unspecified) turned out to be 0.43

The value of log10 Ka measured for the compound CC(N)C[Te]c1ccccc1 (stereo unspecified) turned out to be 0.77

The value of log10 Ka measured for the compound CC(N)C[Se]c1ccccc1 (stereo unspecified) turned out to be 0.93

The value of log10 Ka measured for the compound COc1ccc([Se]CC(C)N)cc1 (stereo unspecified) turned out to be 0.94

The value of log10 Ka measured for the compound CC(N)CSc1ccccc1Br (stereo unspecified) turned out to be 0.38

The value of log10 Ka measured for the compound Cc1ccc([Te]CC(C)N)cc1 (stereo unspecified) turned out to be 0.72

The value of log10 Ka measured for the compound COc1cc([Te]CC(C)N)cc(OC)c1OC (stereo unspecified) turned out to be 0.64

The value of log10 Ka measured for the compound COc1ccc([Te]CC(C)N)cc1 (stereo unspecified) turned out to be 0.91

The value of log10 Ka measured for the compound CC(N)CSc1ccc(Br)cc1 (stereo unspecified) turned out to be 0.87

The value of log10 Ka measured for the compound CC(N)Cc1ccccc1 (stereo unspecified) [AMPHETAMINE] turned out to be -1.03

The value of log10 Ka measured for the compound CC(N)C[Se]c1ccc(F)cc1 (stereo unspecified) turned out to be 0.79

---

I'd be grateful if you could share measured Ka for these entries.
Tested System: Carbonic anhydrase 1 (Homo sapiens) (UniProt P00915)
Sequence (P00915 2-261 limits assumed): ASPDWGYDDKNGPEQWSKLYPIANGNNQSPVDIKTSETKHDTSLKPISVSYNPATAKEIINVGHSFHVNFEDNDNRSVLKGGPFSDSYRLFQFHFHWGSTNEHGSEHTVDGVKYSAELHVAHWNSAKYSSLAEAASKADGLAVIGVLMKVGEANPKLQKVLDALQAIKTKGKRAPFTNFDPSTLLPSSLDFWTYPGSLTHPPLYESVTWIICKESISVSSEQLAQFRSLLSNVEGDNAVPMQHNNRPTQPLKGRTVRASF
Experiment Description: Binding affinity to human CA1 by phenol red dye based stopped flow CO2 hydration assay
Reported Conditions: filed as activator
Value expressed in µM; do not type the unit.

The value of Ka measured for the compound COc1ccc([Te]CC(C)N)cc1 (stereo not drawn) turned out to be 4.6

The value of Ka measured for the compound Cc1cccc(C)c1[Se]CC(C)N (stereo not drawn) turned out to be 6

The value of Ka measured for the compound Cc1ccc([Se]CC(C)N)cc1 (stereo not drawn) turned out to be 5.2

The value of Ka measured for the compound CC(N)CSc1cccc(Br)c1 (stereo not drawn) turned out to be 13.5

The value of Ka measured for the compound COc1cc([Te]CC(C)N)cc(OC)c1OC (stereo not drawn) turned out to be 9.5

The value of Ka measured for the compound CC(N)CSc1ccccc1 (stereo not drawn) turned out to be 11.8

The value of Ka measured for the compound Cc1ccccc1[Se]CC(C)N (stereo not drawn) turned out to be 12.1

The value of Ka measured for the compound CC(N)CSc1ccc(Br)cc1 (stereo not drawn) turned out to be 7.7

---

Tested System: Carbonic anhydrase 5B, mitochondrial (Homo sapiens) (UniProt Q9Y2D0)
Sequence (Q9Y2D0 whole entry): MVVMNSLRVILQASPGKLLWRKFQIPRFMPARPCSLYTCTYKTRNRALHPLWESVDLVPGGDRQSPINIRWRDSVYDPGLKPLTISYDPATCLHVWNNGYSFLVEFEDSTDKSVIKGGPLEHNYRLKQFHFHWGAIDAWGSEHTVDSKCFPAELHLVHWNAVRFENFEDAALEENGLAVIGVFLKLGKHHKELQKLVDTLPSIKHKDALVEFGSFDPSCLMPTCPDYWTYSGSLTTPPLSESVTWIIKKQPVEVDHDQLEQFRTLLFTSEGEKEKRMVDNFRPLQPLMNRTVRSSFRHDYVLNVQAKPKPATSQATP
Experiment Description: Binding affinity to human CA5b by phenol red dye based stopped flow CO2 hydration assay
Reported Conditions: filed as activator
Result Type: Ka
Please state the value followed by its unit.

The value of Ka measured for the compound CC(N)Cc1ccccc1 (stereo not drawn) turned out to be 2.56 µM

The value of Ka measured for the compound CC(N)C[Se]c1ccccc1 (stereo not drawn) turned out to be 26.3 µM

The value of Ka measured for the compound CC(N)CSc1ccc(Br)cc1 (stereo not drawn) turned out to be 22.7 µM

---

Tested System: Carbonic anhydrase 7 (Homo sapiens) (UniProt P43166)
Sequence (P43166 whole entry): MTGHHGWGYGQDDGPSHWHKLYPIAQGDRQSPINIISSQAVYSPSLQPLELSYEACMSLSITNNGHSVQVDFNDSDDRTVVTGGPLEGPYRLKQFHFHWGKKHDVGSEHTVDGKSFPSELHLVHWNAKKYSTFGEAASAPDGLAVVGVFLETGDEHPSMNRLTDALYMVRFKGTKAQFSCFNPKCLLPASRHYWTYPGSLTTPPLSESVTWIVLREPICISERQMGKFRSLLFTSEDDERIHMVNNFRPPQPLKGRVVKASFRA
Experiment Description: Binding affinity to human CA7 by phenol red dye based stopped flow CO2 hydration assay
Reported Conditions: filed as activator
Result Type: Ka

The value of Ka measured for the compound CC(N)C[Te]c1ccccc1 (stereo not given) turned out to be 41.2 µM

The value of Ka measured for the compound CC(N)C[Se]c1ccccc1 (stereo not given) turned out to be 20.6 µM

The value of Ka measured for the compound CC(N)CSc1ccc(Br)cc1 (stereo not given) turned out to be 14.8 µM

The value of Ka measured for the compound CC(N)C[Se]c1ccc(N(C)C)cc1 (stereo not given) turned out to be 12.1 µM

The value of Ka measured for the compound CC(N)CSc1cccc(Br)c1 (stereo not given) turned out to be 11.4 µM

---

Tested System: Carbonic anhydrase 3 (Homo sapiens)
Experiment Description: Binding affinity to human CA3 by phenol red dye based stopped flow CO2 hydration assay
Reported Conditions: filed as activator
# cutoff 70 µM applies to Ka; >= gives 1.0, < gives 0.0

stdin: Is Ka for CC(N)CSc1cccc(Br)c1 (centres undefined) at or above 70 µM?
stdout: 1.0

stdin: Is Ka for CC(N)CSc1ccc(Br)cc1 (centres undefined) at or above 70 µM?
stdout: 0.0

stdin: Is Ka for COc1ccc([Te]CC(C)N)cc1 (centres undefined) at or above 70 µM?
stdout: 1.0

stdin: Is Ka for Cc1cccc(C)c1[Se]CC(C)N (centres undefined) at or above 70 µM?
stdout: 1.0

stdin: Is Ka for CC(N)C[Te]c1ccccc1 (centres undefined) at or above 70 µM?
stdout: 0.0

stdin: Is Ka for CC(N)C[Se]c1ccc(N(C)C)cc1 (centres undefined) at or above 70 µM?
stdout: 1.0

stdin: Is Ka for CC(N)CSc1ccccc1 (centres undefined) at or above 70 µM?
stdout: 0.0

stdin: Is Ka for Cc1ccccc1[Se]CC(C)N (centres undefined) at or above 70 µM?
stdout: 0.0

stdin: Is Ka for CC(N)C[Se]c1ccc(F)cc1 (centres undefined) at or above 70 µM?
stdout: 0.0
